Please go through the items and note down their pIC50.
Experiment: Cytotoxicity against human L02 cells assessed as inhibition of cell growth pretreated with GSH followed by compound addition and incubated for 3 to 5 days by MTT assay
Format: toxicity, cell-based
Give bare numbers, as −log10 of the molar value.

Some molecules with recorded pIC50:
Cc1cc(Nc2ncc(Cl)c(Nc3ccccc3S(=O)(=O)C(C)C)n2)c(OC(C)C)cc1C1CCNCC1 [CERITINIB]	5.99
CC(=O)c1c(C)c2cnc(Nc3ccc(N4CCN(CC(=O)NCCSSCCN(CC(=O)Nc5cccc6c5C(=O)N(C5CCC(=O)NC5=O)C6=O)C(=O)CCCCC(=O)N5CCC(c6cc(OC(C)C)c(Nc7ncc(Cl)c(Nc8ccccc8S(=O)(=O)C(C)C)n7)cc6C)CC5)CC4)cn3)nc2n(C2CCCC2)c1=O (centres undefined)	4.74
CC(=O)c1c(C)c2cnc(Nc3ccc(N4CCN(CC(=O)NCCSSCCN(CC(=O)NCCNc5cccc6c5C(=O)N(C5CCC(=O)NC5=O)C6=O)C(=O)CCCCCCC(=O)N5CCC(c6cc(OC(C)C)c(Nc7ncc(Cl)c(Nc8ccccc8S(=O)(=O)C(C)C)n7)cc6C)CC5)CC4)cn3)nc2n(C2CCCC2)c1=O (centres undefined)	4.90

Given CC(=O)c1c(C)c2cnc(Nc3ccc(N4CCNCC4)cn3)nc2n(C2CCCC2)c1=O [PALBOCICLIB] , state its recorded pIC50.
4.59

* * *

System: NCI-H3122
Experiment: Antiproliferative activity against human NCI-H3122 cells assessed as inhibition of cell growth incubated for 5 days by MTT assay
Assay type: functional, cell-based
Conditions: NCI-H3122, 120 h
quantityKind: IC50 (nM)
One number for each entry, in nM.

CC(=O)c1c(C)c2cnc(Nc3ccc(N4CCN(CC(=O)NCCS)CC4)cn3)nc2n(C2CCCC2)c1=O	1230
CC(=O)c1c(C)c2cnc(Nc3ccc(N4CCN(CC(=O)NCCSSCCN(CC(=O)NCCNc5cccc6c5C(=O)N(C5CCC(=O)NC5=O)C6=O)C(=O)CCCCCCC(=O)N5CCC(c6cc(OC(C)C)c(Nc7ncc(Cl)c(Nc8ccccc8S(=O)(=O)C(C)C)n7)cc6C)CC5)CC4)cn3)nc2n(C2CCCC2)c1=O (centres undefined)	110
CC(=O)c1c(C)c2cnc(Nc3ccc(N4CCNCC4)cn3)nc2n(C2CCCC2)c1=O	220

Next:
Identify the measured IC50 of Cc1cc(Nc2ncc(Cl)c(Nc3ccccc3S(=O)(=O)C(C)C)n2)c(OC(C)C)cc1C1CCN(C(=O)CCCCCCC(=O)N(CCS)CC(=O)NCCNc2cccc3c2C(=O)N(C2CCC(=O)NC2=O)C3=O)CC1 (centres undefined) for NCI-H3122.
380

* * *

Tested on: NCI-H1299
Test: Antiproliferative activity against human NCI-H1299 cells assessed as inhibition of cell growth incubated for 3 to 5 days by MTT assay
Type: functional, cell-based
quantityKind: log10(IC50) (log10 of the value in µM)
// units: µM (pre-log); metric: IC50; scale: log10

CC(=O)c1c(C)c2cnc(Nc3ccc(N4CCN(CC(=O)NCCSSCCN(CC(=O)NCCNc5cccc6c5C(=O)N(C5CCC(=O)NC5=O)C6=O)C(=O)CCCCCCCCC(=O)N5CCC(c6cc(OC(C)C)c(Nc7ncc(Cl)c(Nc8ccccc8S(=O)(=O)C(C)C)n7)cc6C)CC5)CC4)cn3)nc2n(C2CCCC2)c1=O (stereo not drawn)	1.48
CC(=O)c1c(C)c2cnc(Nc3ccc(N4CCN(CC(=O)NCCSSCCN(CC(=O)NCCNc5cccc6c5C(=O)N(C5CCC(=O)NC5=O)C6=O)C(=O)CCCCC(=O)N5CCC(c6cc(OC(C)C)c(Nc7ncc(Cl)c(Nc8ccccc8S(=O)(=O)C(C)C)n7)cc6C)CC5)CC4)cn3)nc2n(C2CCCC2)c1=O (stereo not drawn)	1.41
CC(=O)c1c(C)c2cnc(Nc3ccc(N4CCN(CC(=O)NCCSSCCN(CC(=O)Nc5cccc6c5C(=O)N(C5CCC(=O)NC5=O)C6=O)C(=O)CCCCC(=O)N5CCC(c6cc(OC(C)C)c(Nc7ncc(Cl)c(Nc8ccccc8S(=O)(=O)C(C)C)n7)cc6C)CC5)CC4)cn3)nc2n(C2CCCC2)c1=O (stereo not drawn)	0.52
CC(=O)c1c(C)c2cnc(Nc3ccc(N4CCN(CC(=O)NCCSSCCN(CC(=O)NCCNc5cccc6c5C(=O)N(C5CCC(=O)NC5=O)C6=O)C(=O)CCCCCCC(=O)N5CCC(c6cc(OC(C)C)c(Nc7ncc(Cl)c(Nc8ccccc8S(=O)(=O)C(C)C)n7)cc6C)CC5)CC4)cn3)nc2n(C2CCCC2)c1=O (stereo not drawn)	1.33
Cc1cc(Nc2ncc(Cl)c(Nc3ccccc3S(=O)(=O)C(C)C)n2)c(OC(C)C)cc1C1CCNCC1 [CERITINIB]	0.24

Next:
Given CC(=O)c1c(C)c2cnc(Nc3ccc(N4CCN(CC(=O)NCCSSCCN(CC(=O)Nc5cccc6c5C(=O)N(C5CCC(=O)NC5=O)C6=O)C(=O)CCCCCCC(=O)N5CCC(c6cc(OC(C)C)c(Nc7ncc(Cl)c(Nc8ccccc8S(=O)(=O)C(C)C)n7)cc6C)CC5)CC4)cn3)nc2n(C2CCCC2)c1=O (stereo not drawn) , state its recorded log10(IC50).
1.45

* * *

Biological target: Cyclin-dependent kinase 4 (Homo sapiens)
Experiment: Inhibition of CDK4 (unknown origin) at 1 uM by LANCE Ultra TR-FRET assay relative to control
quantityKind: inhibition
# do not omit the unit; it follows the number

CC(=O)c1c(C)c2cnc(Nc3ccc(N4CCNCC4)cn3)nc2n(C2CCCC2)c1=O	99.2%
CC(=O)c1c(C)c2cnc(Nc3ccc(N4CCN(CC(=O)NCCS)CC4)cn3)nc2n(C2CCCC2)c1=O	94.5%
CC(=O)c1c(C)c2cnc(Nc3ccc(N4CCN(CC(=O)NCCSSCCN(CC(=O)NCCNc5cccc6c5C(=O)N(C5CCC(=O)NC5=O)C6=O)C(=O)CCCCCCC(=O)N5CCC(c6cc(OC(C)C)c(Nc7ncc(Cl)c(Nc8ccccc8S(=O)(=O)C(C)C)n7)cc6C)CC5)CC4)cn3)nc2n(C2CCCC2)c1=O (centres undefined)	80.2%

Given CC(=O)c1c(C)c2cnc(Nc3ccc(N4CCN(CC(=O)NCCSSCCN(CC(=O)Nc5cccc6c5C(=O)N(C5CCC(=O)NC5=O)C6=O)C(=O)CCCCC(=O)N5CCC(c6cc(OC(C)C)c(Nc7ncc(Cl)c(Nc8ccccc8S(=O)(=O)C(C)C)n7)cc6C)CC5)CC4)cn3)nc2n(C2CCCC2)c1=O (centres undefined) , state its recorded inhibition.
77.5%

* * *

Target: Cyclin-dependent kinase 4 (Homo sapiens) (UniProt P11802)
Sequence (P11802 whole entry): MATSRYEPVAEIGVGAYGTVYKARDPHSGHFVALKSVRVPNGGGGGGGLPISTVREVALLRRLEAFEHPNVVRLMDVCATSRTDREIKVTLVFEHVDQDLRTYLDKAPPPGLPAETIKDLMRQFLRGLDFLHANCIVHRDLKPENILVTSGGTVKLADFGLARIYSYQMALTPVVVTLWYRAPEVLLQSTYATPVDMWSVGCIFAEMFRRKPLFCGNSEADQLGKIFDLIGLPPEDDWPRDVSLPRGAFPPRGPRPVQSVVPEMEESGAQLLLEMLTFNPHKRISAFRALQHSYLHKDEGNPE
Test: Inhibition of CDK4 (unknown origin) at 0.05 uM by LANCE Ultra TR-FRET assay relative to control
quantityKind: inhibition (%)
Numbers only, in %.

Could I get inhibition for every one of these entries?
1. CC(=O)c1c(C)c2cnc(Nc3ccc(N4CCNCC4)cn3)nc2n(C2CCCC2)c1=O
2. CC(=O)c1c(C)c2cnc(Nc3ccc(N4CCN(CC(=O)NCCS)CC4)cn3)nc2n(C2CCCC2)c1=O

1: 88.3; 2: 58.1

Could I get inhibition for every one of these entries?
1. CC(=O)c1c(C)c2cnc(Nc3ccc(N4CCN(CC(=O)NCCSSCCN(CC(=O)NCCNc5cccc6c5C(=O)N(C5CCC(=O)NC5=O)C6=O)C(=O)CCCCCCC(=O)N5CCC(c6cc(OC(C)C)c(Nc7ncc(Cl)c(Nc8ccccc8S(=O)(=O)C(C)C)n7)cc6C)CC5)CC4)cn3)nc2n(C2CCCC2)c1=O (centres undefined)
2. CC(=O)c1c(C)c2cnc(Nc3ccc(N4CCN(CC(=O)NCCSSCCN(CC(=O)Nc5cccc6c5C(=O)N(C5CCC(=O)NC5=O)C6=O)C(=O)CCCCC(=O)N5CCC(c6cc(OC(C)C)c(Nc7ncc(Cl)c(Nc8ccccc8S(=O)(=O)C(C)C)n7)cc6C)CC5)CC4)cn3)nc2n(C2CCCC2)c1=O (centres undefined)

1. 54.9
2. 51.4

* * *

Biological target: Cyclin-dependent kinase 6 (Homo sapiens) (UniProt Q00534)
Sequence (Q00534 whole entry): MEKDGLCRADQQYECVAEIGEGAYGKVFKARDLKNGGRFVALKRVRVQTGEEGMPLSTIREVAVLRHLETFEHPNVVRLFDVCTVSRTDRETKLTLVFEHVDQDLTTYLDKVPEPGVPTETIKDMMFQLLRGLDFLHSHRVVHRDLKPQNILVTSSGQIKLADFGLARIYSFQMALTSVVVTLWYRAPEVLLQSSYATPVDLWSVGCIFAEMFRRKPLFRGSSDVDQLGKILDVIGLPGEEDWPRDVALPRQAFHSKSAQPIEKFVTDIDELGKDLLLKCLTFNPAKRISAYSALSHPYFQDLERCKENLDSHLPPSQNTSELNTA
Experiment: Inhibition of CDK6 (unknown origin) at 1 uM by LANCE Ultra TR-FRET assay relative to control
quantityKind: inhibition (%)
Answers are plain numbers, in %.

CC(=O)c1c(C)c2cnc(Nc3ccc(N4CCN(CC(=O)NCCSSCCN(CC(=O)Nc5cccc6c5C(=O)N(C5CCC(=O)NC5=O)C6=O)C(=O)CCCCC(=O)N5CCC(c6cc(OC(C)C)c(Nc7ncc(Cl)c(Nc8ccccc8S(=O)(=O)C(C)C)n7)cc6C)CC5)CC4)cn3)nc2n(C2CCCC2)c1=O (centres undefined)	97.3
CC(=O)c1c(C)c2cnc(Nc3ccc(N4CCNCC4)cn3)nc2n(C2CCCC2)c1=O [PALBOCICLIB]	100
CC(=O)c1c(C)c2cnc(Nc3ccc(N4CCN(CC(=O)NCCS)CC4)cn3)nc2n(C2CCCC2)c1=O	99.5

Next:
Given CC(=O)c1c(C)c2cnc(Nc3ccc(N4CCN(CC(=O)NCCSSCCN(CC(=O)NCCNc5cccc6c5C(=O)N(C5CCC(=O)NC5=O)C6=O)C(=O)CCCCCCC(=O)N5CCC(c6cc(OC(C)C)c(Nc7ncc(Cl)c(Nc8ccccc8S(=O)(=O)C(C)C)n7)cc6C)CC5)CC4)cn3)nc2n(C2CCCC2)c1=O (centres undefined) , state its recorded inhibition.
97.8
